- Target system: NEK6 (human) (UniProt Q9HC98)
- Sequence (Q9HC98 whole entry, looked up): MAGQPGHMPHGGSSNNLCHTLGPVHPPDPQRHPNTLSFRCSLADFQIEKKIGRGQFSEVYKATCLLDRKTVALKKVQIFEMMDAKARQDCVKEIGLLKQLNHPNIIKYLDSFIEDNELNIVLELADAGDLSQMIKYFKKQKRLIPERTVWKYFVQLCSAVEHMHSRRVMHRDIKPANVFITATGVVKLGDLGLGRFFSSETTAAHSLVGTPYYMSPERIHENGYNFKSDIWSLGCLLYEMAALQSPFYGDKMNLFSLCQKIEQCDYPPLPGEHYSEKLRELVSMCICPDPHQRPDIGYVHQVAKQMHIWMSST
- Experiment description: radiometric filter-binding kinase assay, Kinase HotSpot
- Condition info: compound 0.5 µM; ATP 10 µM
Attribute measured: residual activity (%)
Give bare numbers, in %.

Below are worked cases with known answers.
Query block: Answer with the recorded residual activity for the compound listed here: Cc1[nH]c(/C=C2\C(=O)Nc3ccc(S(=O)(=O)N(C)c4cccc(Cl)c4)cc32)c(C)c1C(=O)N1CCN(C)CC1
Result block: 104

Query block: Tell me measured residual activity for c1ccc(-c2n[nH]cc2-c2ccnc3ccccc23)nc1 please.
Result block: 106

Query block: # return recorded residual activity for entry Nc1ncnc2[nH]nc(Nc3ccc(F)cc3)c12
Result block: 102

Query block: Let me know recorded residual activity for Nc1ncnc2c1c(-c1ccc(Oc3ccccc3)cc1)cn2C1CCCC1 , thanks.
Result block: 107

Query block: # return recorded residual activity for entry O=C1NC(=O)/C(=C/c2ccc3c(c2)OC(F)(F)O3)S1
Result block: 113

Query block: Identify residual activity associated with the compound COc1ccc(COc2ccc(Cc3cnc(N)nc3N)cc2OC)cc1
Result block: 99.4

Query block: Please indicate residual activity recorded for O=C(Nc1cccc(Nc2nccc(Nc3cccc(C(F)(F)F)c3)n2)c1)C1CC1
Result block: 103

Query block: Give me measured residual activity, please, for this compound: Nc1ccc2ncnc(NCCc3ccc(Oc4ccccc4)cc3)c2c1
Result block: 103

Query block: Please list residual activity recorded for the compound CCC(=O)Nc1ccc2ncnc(Nc3cccc(Br)c3)c2c1
Result block: 105

Query block: Respond only with residual activity recorded for CCN(CC)CCNC(=O)c1c(C)[nH]c(/C=C2\C(=O)Nc3ccc(Cl)cc32)c1C
Result block: 97.8

For every listed record, write down its residual activity.
1. CCOC(=O)c1c(C)[nH]c(/C=C2\C(=O)Nc3ccccc32)c1C
2. CNc1cc2c(Nc3cccc(Br)c3)ncnc2cn1
3. CNC(=O)c1cc(Oc2ccc(NC(=O)Nc3ccc(Cl)c(C(F)(F)F)c3)cc2)ccn1
4. N#CC(C#N)=C(N)/C(C#N)=C/c1ccc(O)cc1

Result block:
98.1
89.8
105
97.3

----------
- Target system: KIT (human)
- Experiment description: radiometric filter-binding kinase assay, Kinase HotSpot
- Condition info: compound 0.5 µM; ATP 10 µM
Provide the reported residual activity of each item.
Answers are plain numbers, in %.

Query block: State its residual activity for this compound: CCN(CC)CCNC(=O)c1c(C)[nH]c(/C=C2\C(=O)Nc3ccc(F)cc32)c1C
Result block: 8.74

Give residual activity for all compounds that follow.
1. COc1ccc(COc2ccc(Cc3cnc(N)nc3N)cc2OC)cc1
2. CNC(=O)c1cc(Oc2ccc(NC(=O)Nc3ccc(Cl)c(C(F)(F)F)c3)cc2)ccn1
3. Oc1cccc(-c2nc(N3CCOCC3)c3oc4ncccc4c3n2)c1
4. c1ccc(-c2n[nH]c3c2oc2ccccc23)cc1
5. CCN(CC)CCNC(=O)c1c(C)[nH]c(/C=C2\C(=O)Nc3ccc(Cl)cc32)c1C

Result block:
106
53.3
88.9
38
28.7

----------
Would you mind telling me the reported residual activity of each entry?
- Target system: LCK (human) (UniProt P06239)
- Sequence (P06239 whole entry, looked up): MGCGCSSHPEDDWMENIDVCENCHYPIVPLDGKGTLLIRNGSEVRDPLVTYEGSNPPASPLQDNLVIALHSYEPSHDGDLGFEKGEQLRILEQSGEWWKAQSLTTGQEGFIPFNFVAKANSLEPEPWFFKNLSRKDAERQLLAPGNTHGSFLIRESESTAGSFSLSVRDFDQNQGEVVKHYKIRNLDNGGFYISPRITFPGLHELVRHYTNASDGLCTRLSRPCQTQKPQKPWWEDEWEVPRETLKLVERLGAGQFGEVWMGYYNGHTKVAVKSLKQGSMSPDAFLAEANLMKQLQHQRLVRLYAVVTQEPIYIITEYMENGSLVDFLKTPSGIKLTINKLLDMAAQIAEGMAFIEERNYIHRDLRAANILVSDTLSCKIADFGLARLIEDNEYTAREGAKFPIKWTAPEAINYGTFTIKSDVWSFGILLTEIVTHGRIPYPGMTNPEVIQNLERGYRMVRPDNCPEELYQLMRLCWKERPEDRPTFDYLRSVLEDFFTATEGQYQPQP
- Experiment description: radiometric filter-binding kinase assay, Kinase HotSpot
- Condition info: compound 0.5 µM; ATP 10 µM
One number for each entry, in %.

Record excerpt, results attached:
Query block: Indicate its recorded residual activity; the compound in question is CCOC(=O)c1c(C)[nH]c(/C=C2\C(=O)Nc3ccccc32)c1C
Result block: 88.2

Query block: Report residual activity, nothing else, for this compound: CO[C@H]1CC2CC[C@@H](C)[C@@](O)(O2)C(=O)C(=O)N2CCCC[C@H]2C(=O)OC([C@H](C)C[C@@H]2CC[C@@H](O)[C@H](OC)C2)CC(=O)[C@H](C)/C=C(\C)[C@@H](O)[C@@H](OC)C(=O)[C@H](C)C[C@H](C)/C=C/C=C/C=C/1C (some centres undefined)
Result block: 99.4

Query block: Give the reported residual activity for this compound. Cc1ccc(Nc2nccc(N(C)c3ccc4c(C)n(C)nc4c3)n2)cc1S(N)(=O)=O
Result block: 43.3

Query block: For O=C1NC(=O)c2c1c1c3ccccc3n3c1c1c2c2ccccc2n1C1CCC3O1 , write its residual activity.
Result block: 36.2

Query block: # return recorded residual activity for input O=C1NC(=O)C(c2cn(CCCn3ccnc3)c3ccccc23)=C1Nc1ccccc1
Result block: 99.4

Batch lookup, residual activity per entry.
1. O=c1cc(N2CCOCC2)oc2c1ccc1ccccc12
2. O=C1Nc2ccc(Cl)cc2/C1=C/c1cc(Cl)c(O)c(Cl)c1
3. Cc1ccc(NC2=CC(=O)c3sc(C)nc3C2=O)cc1
4. CCN(CC)CCNC(=O)c1c(C)[nH]c(/C=C2\C(=O)Nc3ccc(Cl)cc32)c1C

Result block:
1. 99.2
2. 88.2
3. 94.2
4. 11.8

Lab note: each compound below needs its residual activity filled in.
1. c1ccc(-c2n[nH]c3c2oc2ccccc23)cc1
2. COc1ccc2c(c[n+](C)c3c4cc5c(cc4ccc23)OCO5)c1OC
3. CNc1cc2c(Nc3cccc(Br)c3)ncnc2cn1
4. CC#CC(=O)Nc1cc2c(Nc3ccc(F)c(Cl)c3)ncnc2cn1

Result block:
1: 99.3; 2: 89; 3: 96.7; 4: 92.2

Query block: Provide only the value of recorded residual activity for Nc1ncnc2[nH]nc(Nc3ccc(F)cc3)c12
Result block: 98.3
